Where do the numbers come from? From the nanobody polyreactivity screen of Harvey et al. (2022).

assay: yeast display, Sf9 membrane polyspecificity reagent, FACS + sequencing; frameworks hold sequencing errors
ENDPOINT: polyreactivity (PSR sort gate)

* QVQLVESGGGLVQAGGSLRLSCAASGRTFYVYAMGWYRQAPGKERELVATITSRGGRTYYADSVKGRFTISRDNAKNTVYLQMNSLKPEDTAVDYCNAAWWKVSYVRQKYFYWGQGTQVTVSS | high polyreactivity
* QVQLVESGGGLVQAGGSLRLSCAASGSTFPTYAMGRDRTAPGKEREMVAAIDWSDGSITYYADSVKGRFTISRDNAKNTVYLQMNSLKPEDTAVYYCAKDNSQYGWGYDYWGQGTQVTVSS | low polyreactivity
* QVQLVESGGGLVQAGGSLRLSCAASGSTFSTNAMGWFIQAPGKARELVAGISRSGGRTYYADSVKGRFTISRDNAKTTVYLQMNSLKPEETAVYYSNAVRRFASPSPHYYWGQGTQVTLSS | high polyreactivity
* QVQLVESGGGLVQAGGSLRLSCAASGSIFAYYAMGWYRQAPGKERDLVAAISYSGDGTYYADSVKGRFTISRDNAKNTVYLQMNSLKREDTAVYYCATQIYPLDFYQGDWNDYWGQGTQVTVSS | low polyreactivity

Q: # query: polyreactivity (PSR sort gate) of entry `QVQLVESGGGLVQAGGSLRLSCAASGSTFTSYTMGWYRQAPGKERELVAAISRGGGRTYYADSVKARFTISRDNAKNTVYLQMYRLNPEDTAVYYCNKVLRGDRAGPGYDHWGLGTQVTVSS`
Result: high polyreactivity

Q: Request: `QVQLVESGGVLVQAGGSLRLSCAASGSIFSYNVMGWYRQAQGKEREFVAAITRSGGSTYYADSVKGRFTISRDNAKNTVYLQMNSLKPEDTAVYYCATAYYYTPFREYYYWGQGTQVTVSS`
Result: low polyreactivity

Q: Now try `QVQLVESGGGLVQAGGSLRLSCPASGRIFVRNAMGWYRQAPGKERELVAAITTSGGRTYYADSVKGRFTISRDLAKNPVYLQMNSLKPEDTAVYYCAAETRYRNFPYYYWGQCTQVTVSS` .
Result: high polyreactivity

Q: Then what about the sequence `QVQLVESGGVLVQAGGSLRLSCAASGRIFSSNAMGWYRHAPGKESEFVADISWRTGSTYYADSVKGRFTISRDNAKNTVYLQMNSLKPEDTAVYYCKKRTGSYGYPYYYWGQGTQVTVSS` ?
Result: high polyreactivity

Q: Also `QVQLVESGGGLVQAGGSLRLRCAASGSNFVSYAMGSYRQAPGKERELVATITTSTGSTYADSVKGRFTISRDNAKNTVYLLMYSLKPEDTAVYYCAARYLPWLKYDFDSWGQGTQVTVSS` ?
Result: low polyreactivity

Q: Likewise for `QVQHVESGGGLVQAGGSLRLSCAASGRIFPYKAMGWYRQAPGKERELVAAISKSGVRTYYADSVKGRFTISRDNAKNTVYLQMNSLKPEDTAVYYCARGGYPGSAEYDYWGQGTQVTVSS` ?
Result: high polyreactivity

Q: Could you do the same for `QVQLVESGGGLVQAGGSLRLSCAASGRIFRRNVMGWYRQAPGKERELVAAITGSGSSTYYADSVKGRFTISRDNAKNTVYLQMNSLKPVDTAVYYCATKWRFKLGDYWGQGTQVTVSS` , please?
Result: high polyreactivity
